# Tested on: U251 CNS
# protocol-notes: NCI tumour cell line growth inhibition, 48 h
Item-by-item account of TGI
metric-name: TGI

>>> value_measured("CC(C)(C)OC(=O)Cn1ncn(NC(=O)Cc2ccccc2)c1=O")
"> 10 µM"
>>> value_measured("CC(=O)OC1CC[C@@]2(C)C(CC[C@]3(C)C2CC=C2[C@@H]4C(C)[C@H](C)CCC4(C)CCC23C)[C@@]1(C)C(=O)O (some centres undefined)")
"58.2 µM"
>>> value_measured("CCN1C[C@]2(COC)[C@H](O)C[C@H](OC)[C@]34C1[C@H]([C@H](OC)[C@H]23)[C@]1(OC(C)=O)[C@H]2[C@@H](OC(=O)c3ccccc3)[C@](O)(C[C@H]24)[C@@H](OC)[C@@H]1O")
"> 100 µM"
>>> value_measured("CCOC(=O)C(C)c1nc2ccc(C(F)(F)F)cc2[nH]c1=O (centres undefined)")
"> 100 µM"
>>> value_measured("O=[N+]([O-])/C(C(Cl)=C(Cl)Cl)=C(\\N1CCCCC1)n1nnc2ccccc21")
"31.1 µM"
>>> value_measured("CNS(=O)(=O)OCC1OC(n2cnc3c(N)ncnc32)C(O)C1O (centres undefined)")
"> 100 µM"
>>> value_measured("COc1cccc2c1C(=O)OC2c1cccc2ccccc12 (centres undefined)")
"> 100 µM"
>>> value_measured("O=S(=O)(O)c1ccc2c(N=Nc3ccc(Cl)cc3)c(O)ccc2c1")
"> 100 µM"
>>> value_measured("COC(=O)[C@@H]1CC(C(CN)c2cn(C(=O)OC(C)(C)C)c3ccccc23)C(=O)N1C(=O)OC(C)(C)C (some centres undefined)")
"> 100 µM"
>>> value_measured("CN1C(=O)CC2CCC(=O)N2c2cccnc21 (centres undefined)")
"> 100 µM"
>>> value_measured("c1ccc2c(c1)ccn1ccc3c4ccccc4nc-3c21")
"1.47 µM"
>>> value_measured("N#Cc1ccc2cc3c(cc2c1)OCO3")
"> 100 µM"
>>> value_measured("CC(C)(C)C1=CC(=C2C=Cc3ccccc3O2)C=C(C(C)(C)C)C1=O")
"7.51 µM"
>>> value_measured("COc1cc(NC=C2C(=O)OC(C)(C)OC2=O)c(OC)c(C)c1OC")
"> 100 µM"
>>> value_measured("CC1NC(=O)C2=C1C(N)=NC(=O)C2 (centres undefined)")
"> 100 µM"
>>> value_measured("c1ccc(P(=C2c3ccccc3-c3ccccc32)(c2ccccc2)c2ccccc2)cc1")
"9.18 µM"
>>> value_measured("O=C(C/C(CCC(=O)N(Cc1ccccc1)Cc1ccccc1)=N/Nc1ccc([N+](=O)[O-])cc1[N+](=O)[O-])c1ccccc1")
"> 100 µM"
>>> value_measured("COC(=O)/C=C(\\S/C=C(/c1ccccc1)N1CCn2c(C(=O)c3ccccc3)c(C(=O)OC)c(C(=O)OC)c21)C(=O)OC")
"> 10 µM"
>>> value_measured("O=C(/C=C/C12c3ccccc3C(c3ccccc31)C1C(=O)NC(=O)C12)c1ccc(Cl)cc1 (centres undefined)")
"2.99 µM"

====

# Tested on: NCI-H460 lung
# protocol-notes: NCI tumour cell line growth inhibition, 48 h
Item-by-item account of TGI
metric-name: TGI (µM)

>>> value_measured("O=C(/C=C/C12c3ccccc3C(c3ccccc31)C1C(=O)NC(=O)C12)c1ccc(Cl)cc1 (centres undefined)")
4.31
>>> value_measured("COc1ccc(N(/C=C/C(=O)C(F)(F)F)CC(=O)c2ccc(Cl)cc2)cc1")
32.8

====

Item-by-item account of TGI
# Test system: K-562 leukemia
# protocol-notes: NCI tumour cell line growth inhibition, 48 h
metric-name: TGI (µM)

>>> value_measured("O=C(N/N=C/c1cc(Cl)cc(Cl)c1[O-])c1ccccc1.O=C(N/N=C/c1cc(Cl)cc(Cl)c1[O-])c1ccccc1.[Co+2]")
76.7
>>> value_measured("Cc1ccc(O)c(C2=CC(c3cccc(Br)c3)SC(N)=N2)c1 (stereo not given)")
83.2

====

# System: SW-620 colon
# protocol-notes: NCI tumour cell line growth inhibition, 48 h
metric-name: TGI

>>> value_measured("c1ccc([As]=[As]c2ccccc2)cc1 (configuration not stated)")
"2.02 µM"
>>> value_measured("Cc1cccc(C)c1Nc1nc(C)c(C(=O)CC(=O)C(=O)Nc2c(C(C)C)cccc2C(C)C)s1")
"> 100 µM"
>>> value_measured("COc1ccc(C(=O)N/N=C/c2c(C)n(C)n(-c3ccccc3)c2=O)cc1")
"> 100 µM"
>>> value_measured("CCCCCCCCCCCCCC(=O)CSCCNC(=O)CCNC(=O)[C@@H](O)C(C)(C)COP(=O)(O)OP(=O)(O)OCC1OC(n2cnc3c(N)ncnc32)C(O)C1OP(=O)(O)O (some centres not stated)")
"55.5 µM"
>>> value_measured("O=C(Nc1nnc(-c2c(Cl)c(Cl)c(Cl)c(Cl)c2-c2nc3cc(C(=O)c4ccccc4)ccc3[nH]2)o1)c1ccc(Cl)cc1")
"> 100 µM"
>>> value_measured("COc1cccc2cc(C(C)=O)c(=O)oc12")
"> 100 µM"
>>> value_measured("O=C1CCCCC/C1=C\\c1ccccc1")
"> 100 µM"
>>> value_measured("O=C(Nc1cc(Oc2cc(F)c(NC(=O)C3(C(=O)Nc4ccc(F)cc4)CC3)cc2F)ccn1)C1CC1")
"> 100 µM"
>>> value_measured("C/C=C/COC(=O)CO[N+](=O)[O-]")
"> 100 µM"
>>> value_measured("CCN1C[C@]2(COC)[C@H](O)C[C@H](OC)[C@]34C1[C@H]([C@H](OC)[C@H]23)[C@]1(OC(C)=O)[C@H]2[C@@H](OC(=O)c3ccccc3)[C@](O)(C[C@H]24)[C@@H](OC)[C@@H]1O")
"> 100 µM"
>>> value_measured("CC(CN(C)C)C(=O)c1ccccc1 (configuration not stated)")
"27 µM"
>>> value_measured("Cc1c(N2C(=O)/C(=C/c3ccc(N(CCC#N)CCC#N)cc3)N=C2c2ccccc2)c(=O)n(-c2ccccc2)n1C")
"> 100 µM"
>>> value_measured("CC(C)/C(=N\\[N+](C)(C)C)c1ccccc1")
"> 100 µM"
>>> value_measured("CC(=O)NNc1nc(C)c(C(=O)NNC(=O)C(=O)Nc2ccc([N+](=O)[O-])cc2C#N)s1")
"> 100 µM"
>>> value_measured("Cc1ccc(O)c(C2=CC(c3cccc(Br)c3)SC(N)=N2)c1 (configuration not stated)")
"> 100 µM"
>>> value_measured("ClCc1cccc(CSc2ncnc3c2ncn3Cc2cccc(CCl)c2)c1")
"3.47 µM"
>>> value_measured("CCn1c2c(c3ccccc31)C(c1ccccc1)CC1C(=O)N(c3ccccc3)C(=O)C21 (configuration not stated)")
"> 100 µM"
>>> value_measured("Nc1ccccc1C#C/C=C\\C#Cc1c(F)c(F)c(F)c(F)c1F")
"42 µM"
>>> value_measured("Cc1ccc2oc3c(c(Br)c(Br)n3C)c(=O)c2c1")
"> 100 µM"
>>> value_measured("O=C(C[P+](c1ccccc1)(c1ccccc1)c1ccccc1)C[P+](c1ccccc1)(c1ccccc1)c1ccccc1")
"0.816 µM"
>>> value_measured("Oc1[nH]c2ccccc2c1N=Nc1c(F)c(F)c(F)c(F)c1F")
"> 72.8 µM"
>>> value_measured("Cn1c(=O)c2[nH]cnc2n(CC(N)=O)c1=O")
"> 100 µM"
>>> value_measured("CC(C)(C)OC(=O)CN1CCN(CC(=O)N2CCN(C(=O)OCc3ccccc3)CC2)CCN(CC(=O)OC(C)(C)C)CCN(CC(=O)N2CCN(C(=O)OCc3ccccc3)CC2)CC1")
"8.5 µM"
>>> value_measured("CC[C@H](C)C1=C(O)[N@+]2([O-])Oc3ccc(-c4c(O)c(O)c(-c5ccc(O)cc5)c(OC(C)=O)c4OC(C)=O)cc3O[C@]2([C@@H](C)CC)C(=O)N1O")
"> 50 µM"
>>> value_measured("c1ccc2c(c1)ccn1ccc3c4ccccc4nc-3c21")
"2.34 µM"
>>> value_measured("O=C(N/N=C/c1cc(Cl)cc(Cl)c1[O-])c1ccccc1.O=C(N/N=C/c1cc(Cl)cc(Cl)c1[O-])c1ccccc1.[Co+2]")
"> 100 µM"
>>> value_measured("CCOC(=O)/C(=C/c1ccc(N(CCC#N)CCC#N)cc1C)NC(=O)/C=C/c1ccccc1")
"> 100 µM"
>>> value_measured("Cc1cc(Nc2cc(N3CCN(C)CC3)nc(Sc3ccc(NC(=O)C4CC4)cc3)n2)n[nH]1")
"> 10 µM"
>>> value_measured("CCOC(=O)C(CNc1ccc(O)cc1)NC(=O)c1ccccc1 (configuration not stated)")
"> 100 µM"
>>> value_measured("Nc1nc(=O)n([C@@H]2CS[C@H](CO)O2)cc1F")
"> 100 µM"
>>> value_measured("COP(=O)(OC)/C(=C/c1cn(C(c2ccccc2)(c2ccccc2)c2ccccc2)cn1)NC=O")
"78.1 µM"
>>> value_measured("COc1cc2c(cc1C1=NC(C)(C)CO1)OCO2")
"> 100 µM"
>>> value_measured("O=S(=O)(/N=C(\\NO)Nc1ccc(Cl)cc1)c1ccccc1")
"> 100 µM"
>>> value_measured("CCn1c(=O)c2nc(SC)sc2n(-c2ccccc2)c1=O")
"> 100 µM"
>>> value_measured("Cc1c(C(N)=O)sc2c1c(=O)n(Cc1ccccc1)c1nnc(-c3ccc(Br)cc3)n21")
"18.9 µM"
>>> value_measured("CCN(CC)CCn1[nH]c2c3ccc(=O)cc3sc3c(NCCN)ccc1c32")
"4.77 µM"
>>> value_measured("CO[C@@H]1C[C@H](OC(N)=O)[C@@H]2C=C[C@@H]3/C=C(C)/C=C/[C@@H](C)[C@H](/C(C)=C/[C@@H](C)NC(C)=O)OC(=O)/C=C/C=C(C)\\C=C\\[C@]3(C)[C@@H]2C1")
"1.24 µM"
